Biological target: human FPR2 (Homo sapiens, UniProt P25090)
Sequence (P25090 1-351): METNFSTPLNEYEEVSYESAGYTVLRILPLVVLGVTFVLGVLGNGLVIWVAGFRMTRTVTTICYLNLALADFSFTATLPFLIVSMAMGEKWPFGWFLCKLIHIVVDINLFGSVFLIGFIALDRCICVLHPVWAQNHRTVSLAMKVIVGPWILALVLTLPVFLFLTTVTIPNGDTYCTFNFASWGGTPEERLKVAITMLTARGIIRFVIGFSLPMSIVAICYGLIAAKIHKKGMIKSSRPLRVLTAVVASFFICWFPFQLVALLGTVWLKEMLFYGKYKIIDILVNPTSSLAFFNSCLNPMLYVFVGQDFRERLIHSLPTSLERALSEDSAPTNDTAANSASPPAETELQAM
Assay: FPR2 cyclic adenosine monophosphate (cAMP) assay
Settings: CHO cells overexpressing human FPR2; forskolin 5 μM; inhibition of cAMP production; HTRF; read-out: hFPR2 cAMP2 EC50
pEC50: −log10 of the molar value.
readout: pEC50

Use the examples below as a reference point.
COc1cc(F)c(-c2c(NC(=O)c3ccc(OC(F)F)cc3)c(=O)n(-c3nc(N4CCN(S(C)(=O)=O)CC4)ccc3Cl)n2C)c(F)c1
8.30
COc1cc(F)cc(-n2c(=O)c(NC(=O)c3ccc(OC(F)F)cc3)c(-c3c(F)cc(OC)cc3F)n2C)c1
8.22
COc1cc(F)c(-c2c(NC(=O)c3ccc(OC(F)F)cc3)c(=O)n(-c3cccc(OC)c3Cl)n2C)c(F)c1
8.22

A = [2H]C([2H])([2H])Oc1cc(F)c(-c2c(NC(=O)c3ccc(OC(F)(F)F)cc3)c(=O)n(-c3cc(C(F)(F)F)ccn3)n2C)c(F)c1
B = COc1cc(C2CCCN(C)C2)nc(-n2c(=O)c(NC(=O)c3ccc(OC(F)F)cc3)c(-c3c(F)cc(OC)cc3F)n2C)c1 (stereo not drawn) [Example 342]
C = COc1cc(F)c(-c2c(NC(=O)c3ccc(Cl)cc3)c(=O)n(-c3ccccc3)n2C)c(F)c1
Ask | Provide the items ranked by increasing pEC50. // format: requested-order list of labels
Reply | C, A, B
